- procedure details: LogD7.4, octanol/water partition coefficient
- Type: physicochemical
- protocol conditions: pH 7.4
Answer false (0) if logD is under 0.9, and true (1) if it is 0.9 or more.

molecule	label
CCc1cc2c(cc1CC)CC(NC[C@H](O)c1ccc(O)c3[nH]c(=O)ccc13)C2	true (1)

Problem: Has CC(C)(C)NCC(O)c1cc(O)cc(O)c1 (centres unmarked) a recorded logD greater than or equal to 0.9?
Solution: false (0)

Problem: Is reported logD greater than or equal to 0.9 here: OCc1cc(C(O)CNCCCCCCOCCCCc2ccccc2)ccc1O (centres unmarked)
Solution: true (1)

Problem: Exam item: decide whether the reported logD for COc1cc(NC(=O)CCN2CCC(OC(=O)Nc3ccccc3-c3ccccc3)CC2)c(Cl)cc1CNC[C@H](O)c1ccc(O)c2[nH]c(=O)ccc12 is at least 0.9.
Solution: true (1)

====

Measured pKa accompanies every entry in the list below.
- procedure details: pKa determination
- Type: physicochemical
- protocol conditions: pKa
Provide a numeric answer; units are not to be included.

molecule	pKa
OCc1cc(C(O)CNCCCCCCOCCCCc2ccccc2)ccc1O (stereo not drawn) [Salmeterol]	9.1
CC(C)(C)NCC(O)c1ccc(O)c(CO)c1 (stereo not drawn) [Salbutamol]	9.2
COc1cc(NC(=O)CCN2CCC(OC(=O)Nc3ccccc3-c3ccccc3)CC2)c(Cl)cc1CNC[C@H](O)c1ccc(O)c2[nH]c(=O)ccc12 [Batefenterol]	10
CC(C)(C)NCC(O)c1cc(O)cc(O)c1 (stereo not drawn) [Terbutaline]	9.3
CCc1cc2c(cc1CC)CC(NC[C@H](O)c1ccc(O)c3[nH]c(=O)ccc13)C2 [Indacaterol]	8.3

// moving on: another record for pKa
Entry CNC(=O)c1cc(Cl)c(OC(C)(C)C(=O)O)cc1OC[C@@H](O)CN1CCC2(CC1)Cc1cc(Cl)ccc1O2 [AZD4818] — recorded pKa = 8.4

====

Parameter: solubility. Scope: all listed entries.
- procedure details: Solubility in phosphate buffer at pH 7.4
- Type: physicochemical
- protocol conditions: phosphate buffer, pH 7.4, aqueous buffer

Some solved entries appear below for comparison.
compound	solubility
OCc1cc(C(O)CNCCCCCCOCCCCc2ccccc2)ccc1O (stereo not shown) [Salmeterol]	> 380 µM
CC(C)(C)NCC(O)c1ccc(O)c(CO)c1 (stereo not shown) [Salbutamol]	> 2900 µM
C[N+]1(C)[C@@H]2C[C@@H](OC(=O)C(O)(c3cccs3)c3cccs3)C[C@H]1[C@@H]1O[C@@H]12 [Tiotropium]	> 2800 µM

Now examine the next entry.
For CNC(=O)c1cc(Cl)c(OC(C)(C)C(=O)O)cc1OC[C@@H](O)CN1CCC2(CC1)Cc1cc(Cl)ccc1O2 [AZD4818] the compound record lists solubility as > 2500 µM
